Cited source for all entries: PubChem BioAssay (NCI)

Tested on: HCT-15 colon
testMethodNotes: NCI-60 one-dose screen, 48 h (100 = growth as untreated, 0 = no growth, -100 = all killed)
recordedConditions: 10 µM unless noted
The panel holds about 83,000 compounds, 20% with a hit somewhere; the sample as a whole holds those more often.
outcomeMeasure: growth (%)
Kindly answer with a numeric value in %, unit omitted.

Here's what some known entries look like.
Nc1nc(SN=Nc2ccc(S(N)(=O)=O)cc2)c2[nH]cnc2n1 :: 12.6
COc1cccc(C(Cc2ccccc2)Nc2ccccc2)c1OC (stereo not given) :: 91.3

Data request: Could you share which growth value was measured for COc1cccc2c1C(=O)c1c(O)c3c(c(O)c1C2=O)C[C@@](O)(C(=O)CO)C[C@@H]3O[C@H]1C[C@H](N)[C@@H](O)[C@H](C)O1 ?
Data returned: 40.5

Data request: Next molecule: O=C(Nc1cccc(Cl)c1)Oc1c(Br)c(Br)c(Br)c(Br)c1Br
Data returned: 98.2

Data request: Do the same for COc1cccc(CCC(=O)c2cc3c(N)c(C(=O)Nc4ccccc4)sc3nc2C)c1 please
Data returned: 17.5

Data request: Also COc1cc2ncnc(Nc3ccc(C(=O)/C=C/c4ccc(C(F)(F)F)cc4F)cc3)c2cc1OC ?
Data returned: 104

Data request: Same lookup for COc1cccc(CCC(=O)c2cc3c(N)c(C(=O)Nc4cccc(Cl)c4C)sc3nc2C)c1 , please.
Data returned: 13.8

Data request: # repeat for Cn1c2c(Cl)c(Cl)ccc2c2cc(N)[nH]c(=O)c21
Data returned: 97.1

Data request: Try the molecule c1ccc(Cn2nc3c(c2-c2ccccc2)-c2oncc2CC3)cc1
Data returned: 99.3

Data request: Okay, and CC(=O)NCCCS(=O)(=O)O ?
Data returned: 103
